Provide the recorded melting point for the entries that follow.
Give bare numbers, in °C.

Study these solved cases before continuing.
COc1cc(N2C[C@H](C)n3ncc(C(=O)Nc4cncc(F)c4)c3C2=O)ccc1C(F)(F)F; 259
C[C@H]1CN(c2ccc(Cl)c(Cl)c2)C(=O)c2c(C(=O)Nc3cncc(F)n3)cnn21; 172.9
C[C@H]1CN(c2ccc(C(F)(F)F)cc2)C(=O)c2c(C(=O)Nc3ccc(F)cc3)cnn21; 185.3
COc1cc(N2C[C@H](C)n3ncc(C(=O)Nc4cnccc4C)c3C2=O)ccc1C(F)(F)F; 243.4
COc1cncc(NC(=O)c2cnn3c2C(=O)N(c2ccc(C(F)(F)F)c(OC)c2)C[C@@H]3C)c1; 191.5

For every item in the list below, what is its measured melting point?
1. O=C(Nc1cccnc1)c1cnn2c1C(=O)N(c1ccc(C(F)(F)F)cc1)CC2
2. Cc1cc(NC(=O)c2cnn3c2C(=O)N(c2ccc(C(F)(F)F)c(C#N)c2)C[C@@H]3C)ccn1
3. C[C@H]1CN(c2ccc(C(F)(F)F)c(F)c2)C(=O)c2c(C(=O)Nc3ccccn3)cnn21

Given back:
1. 229.9
2. 224.9
3. 199.2

* * *

# experimental system: human mGlu2 receptor (Homo sapiens, UniProt Q14416)
# Sequence (Q14416 19-872): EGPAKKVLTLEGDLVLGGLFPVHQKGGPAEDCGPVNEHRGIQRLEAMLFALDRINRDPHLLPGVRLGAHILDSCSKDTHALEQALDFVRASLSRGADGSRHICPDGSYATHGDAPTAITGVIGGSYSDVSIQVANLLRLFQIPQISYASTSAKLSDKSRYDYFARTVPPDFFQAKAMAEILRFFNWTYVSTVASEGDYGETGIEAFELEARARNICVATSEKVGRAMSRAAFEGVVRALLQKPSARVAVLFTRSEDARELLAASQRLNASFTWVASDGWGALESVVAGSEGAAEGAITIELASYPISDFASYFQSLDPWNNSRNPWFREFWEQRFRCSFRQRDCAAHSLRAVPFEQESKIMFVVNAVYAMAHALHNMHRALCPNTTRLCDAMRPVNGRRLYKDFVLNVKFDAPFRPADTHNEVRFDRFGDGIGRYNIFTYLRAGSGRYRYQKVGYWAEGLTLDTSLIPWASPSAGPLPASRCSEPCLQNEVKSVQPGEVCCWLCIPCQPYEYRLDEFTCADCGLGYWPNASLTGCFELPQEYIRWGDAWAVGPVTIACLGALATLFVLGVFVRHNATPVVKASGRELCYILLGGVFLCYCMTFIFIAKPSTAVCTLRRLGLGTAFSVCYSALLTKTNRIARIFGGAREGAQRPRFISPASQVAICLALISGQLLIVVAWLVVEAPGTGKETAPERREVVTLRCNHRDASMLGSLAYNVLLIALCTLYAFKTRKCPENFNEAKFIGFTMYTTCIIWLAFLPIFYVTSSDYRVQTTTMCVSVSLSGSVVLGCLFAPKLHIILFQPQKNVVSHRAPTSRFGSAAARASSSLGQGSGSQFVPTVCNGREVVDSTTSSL
# test summary: [35S]GTPγS binding assay, mGluR2 negative allosteric modulation (membranes from CHO cells transfected with human mGlu2 receptor, glutamate ~EC80 60 μM)
# recorded conditions: GTPγS - hmGluR2 anGT pIC50, membranes with human mGlu2 receptor, glutamate ~EC80 (60 μM); pIC50 = -log IC50 (M)
Provide the recorded log10 of IC50 for the entries that follow.
The common logarithm of IC50 in M is what is listed.

COCC1CN(c2ccc(C(F)(F)F)c(Cl)c2)C(=O)c2c(C(=O)Nc3cccnc3)cnn21 (single isomer, unassigned) [compound 157]; -6.55
C[C@H]1CN(c2ccc(C(F)(F)F)cc2)C(=O)c2c(C(=O)Nc3ccc(S(=O)(=O)F)cc3)cnn21; -7.37
C[C@H]1CN(c2ccc(C(F)(F)F)cc2)C(=O)c2c(C(=O)Nc3cncc(CO)c3)cnn21; -7.73
Cc1ccncc1NC(=O)c1cnn2c1C(=O)N(c1ccc(C(F)(F)F)cc1)C[C@@H]2C; -8.61
COc1cc(N2C[C@H](C)n3ncc(C(=O)Nc4cnccn4)c3C2=O)ccc1C(F)(F)F; -8.16
Cc1cc(C(=O)NC(=O)c2cnn3c2C(=O)N(c2ccc(C(F)(F)F)cc2)C[C@@H]3C)ccn1; -6.16

Next molecule, log10 of IC50 to be filled in.
Asked: Using known records, supply log10 of IC50 for C[C@H]1CN(c2ccc(C(F)(F)F)c(Cl)c2)C(=O)c2c(C(=O)Nc3cnccn3)cnn21
Given back: -8.94

* * *

# experimental system: human mGlu2 receptor (Homo sapiens, UniProt Q14416)
# test summary: [35S]GTPγS binding assay, mGluR2 negative allosteric modulation (membranes from CHO cells transfected with human mGlu2 receptor, glutamate ~EC80 60 μM);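 also: membranes preincubated 30 min at 30 °C with compound plus glutamate, then [35S]GTPγS (0.1 nM) incorporation measured over another 30 min at 30 °C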
# recorded conditions: GTPγS - hmGluR2 anGT pIC50, membranes with human mGlu2 receptor, glutamate ~EC80 (60 μM); pIC50 = -log IC50 (M)
Provide the recorded IC50 for the entries that follow.
Give bare numbers, in M.

C[C@H]1CN(c2ccc(C(F)(F)F)cc2)C(=O)c2c(C(=O)Nc3ccncn3)cnn21; 8.32e-09
COc1cccnc1NC(=O)c1cnn2c1C(=O)N(c1ccc(C(F)(F)F)cc1)C[C@@H]2C; 2.4e-07
C[C@H]1CN(c2ccc(C(F)(F)F)c(CF)c2)C(=O)c2c(C(=O)Nc3ccncc3)cnn21; 2.57e-09
C[C@H]1CN(c2ccc(C(F)(F)F)cc2)C(=O)c2c(C(=O)Nc3cnccc3CO)cnn21; 5.37e-08
C[C@H]1CN(c2ccc(C(F)(F)F)cc2)C(=O)c2c(C(=O)NC3CCCCC3)cnn21; 1.78e-07
Cc1cncc(NC(=O)c2cnn3c2C(=O)N(c2ccc(C(F)(F)F)c(F)c2)C[C@@H]3C)c1; 3.55e-09
CNC(=O)c1cnn2c1C(=O)N(c1ccc(C(F)(F)F)cc1)C[C@@H]2C; 4.57e-07
C[C@H]1CN(c2ccc(C(F)(F)F)cc2)C(=O)c2c(C(=O)NCc3ccc(N)nc3)cnn21; 1.55e-06
C[C@H]1CN(c2ccc(C(F)(F)F)cc2)C(=O)c2c(C(=O)NCC3CCC3)cnn21; 1.82e-08
C[C@H]1CN(c2ccc(C(F)(F)F)cc2)C(=O)c2c(C(=O)Nc3cncc(F)c3)cnn21 [13a]; 1.1e-09

For every item in the list below, what is its measured IC50?
1. Cc1cc(NC(=O)c2cnn3c2C(=O)N(c2ccc(C(F)(F)F)c(C#N)c2)C[C@@H]3C)ccn1
2. C[C@H]1CN(c2ccc(Cl)cc2)C(=O)c2c(C(=O)Nc3cccnc3)cnn21
3. COc1cncc(NC(=O)c2cnn3c2C(=O)N(c2ccc(C(F)(F)F)c(Cl)c2)C[C@@H]3C)c1

Given back:
1.86e-08
6.17e-09
1.41e-09

For every item in the list below, what is its measured IC50?
1. C[C@H]1CN(c2ccc(C(F)(F)F)cc2)C(=O)c2c(C(=O)NCC3CCCO3)cnn21 (stereo partly drawn)
2. C[C@H]1CN(c2ccc(C(F)(F)F)cc2)C(=O)c2c(C(=O)Nc3nccs3)cnn21

Given back:
7.76e-08
9.33e-09
